Cited source: ChEMBL document CHEMBL4689842

System: U2OS
Test: Multiplex assay against U2OS
Type: toxicity, cell-based
Conditions: human, 24 h, 1 µM, compound concentration 1 uM, replicate 1
ENDPOINT_NAME: Population Pyknosed Nuclei (%)
// return numeric value only (unit: %, not printed)

Some entries whose results are on file:
[Q] Provide Population Pyknosed Nuclei (%), tested on U2OS, for CNc1cc(Oc2cc(C(=O)Nc3cc(N4CCN(C)CC4)cc(C(F)(F)F)c3)ccc2C)ncn1 .
[A] 23

[Q] Provide Population Pyknosed Nuclei (%), system U2OS, entry O=C1NC(=O)C(c2cnc3ccccn23)=C1c1cn2c3c(cc(F)cc13)CN(C(=O)N1CCCCC1)CC2 [LY-2090314]
[A] 21

***
[Q] Report value only: Population Pyknosed Nuclei (%), U2OS, COc1cc2ncnc(Nc3ccc(F)c(Cl)c3)c2cc1NC(=O)/C=C/CN1CCCCC1 [DACOMITINIB ANHYDROUS]
[A] 9

[Q] Give Population Pyknosed Nuclei (%) for this entry on U2OS: O=C(Nc1ccc(Cl)cc1)Nc1cccc(-c2cccc(N3CCCC3)n2)c1
[A] 9

[Q] State recorded Population Pyknosed Nuclei (%) with U2OS, entry CCN1CCN(c2ccc(Nc3cc(N(C)C(=O)Nc4c(Cl)c(OC)cc(OC)c4Cl)ncn3)cc2)CC1 [INFIGRATINIB] , no comment.
[A] 38

[Q] Provide U2OS Population Pyknosed Nuclei (%) reading for Cc1ccc(C(=O)Nc2cccc(C(F)(F)F)c2)cc1Nc1nc(-c2cccnc2)nc2c1cnn2C .
[A] 13

[Q] Please tell me the measured Population Pyknosed Nuclei (%) for CCc1cccc(CC)c1NC(=O)c1nn(C)c2c1CCc1cnc(Nc3ccc(N4CCN(C)CC4)cc3OC)nc1-2 ; system: U2OS.
[A] 59

[Q] # return Population Pyknosed Nuclei (%) for CN1CCC(=C2c3ccccc3CC(=O)c3sccc32)CC1.O=C(O)/C=C/C(=O)O [KETOTIFEN FUMARATE] , test system: U2OS
[A] 14

====

Test system: Fibroblast
Experiment: Multiplex assay against human fibroblast
Format: toxicity, cell-based
Conditions: 24 h, 1 µM, compound concentration 1 uM, replicate 2
ENDPOINT_NAME: Population Healthy Nuclei (%)
Your answer should be a plain number; it is taken to be in %.

Known Population Healthy Nuclei (%) results, listed for orientation:
[Q] Report Population Healthy Nuclei (%) for CCOc1cc2ncc(C#N)c(Nc3ccc(OCc4ccccn4)c(Cl)c3)c2cc1NC(=O)/C=C/CN(C)C [NERATINIB]
[A] 76

[Q] Specify reported Population Healthy Nuclei (%) for the molecule shown: NC(=O)c1cccc(-c2cc(Nc3ccc(OC(F)(F)F)cc3)ncn2)c1
[A] 46

[Q] Tell me Population Healthy Nuclei (%) reported for C=CCn1c(=O)c2cnc(Nc3ccc(N4CCN(C)CC4)cc3)nc2n1-c1cccc(C(C)(C)O)n1 [ADAVOSERTIB]
[A] 41

[Q] Report measured Population Healthy Nuclei (%); entry is O=C(Nc1cccnn1)N1CCC(=Cc2cccc(Oc3ccc(C(F)(F)F)cn3)c2)CC1
[A] 28

[Q] Specify Population Healthy Nuclei (%) for Cc1ccc(C(=O)Nc2cccc(C(F)(F)F)c2)cc1Nc1nc(-c2cccnc2)nc2c1cnn2C and stop.
[A] 72

[Q] Provide one value: measured Population Healthy Nuclei (%) of COC(=N)c1nc2ccc3ncnc(Nc4ccc(OC)cc4F)c3c2s1
[A] 36

[Q] Give the reported Population Healthy Nuclei (%) for this molecule. S=C(NCCCc1c[nH]cn1)NCCCN(Cc1ccc(Cl)c(Cl)c1)c1ccc(Br)cn1
[A] 80

[Q] Return the recorded Population Healthy Nuclei (%) value; entry: CCCS(=O)(=O)c1nc(NC2CC2)cc(-c2ccc3c(ccn3C3CC(C)(C)NC(C)(C)C3)c2)n1
[A] 66

[Q] Return Population Healthy Nuclei (%) for the following molecule: CNc1cc(Oc2cc(C(=O)Nc3cc(N4CCN(C)CC4)cc(C(F)(F)F)c3)ccc2C)ncn1
[A] 63

[Q] Give the reported Population Healthy Nuclei (%) for this molecule. O=C1NC(=O)C(c2cnc3ccccn23)=C1c1cn2c3c(cc(F)cc13)CN(C(=O)N1CCCCC1)CC2 [LY-2090314]
[A] 87

New cases:
[Q] Tell me measured Population Healthy Nuclei (%) for CCn1cc(-c2ccnc3[nH]c(-c4cccc(CN(C)C)c4)cc23)c(-c2ccc(NC(=O)N(C)C)cc2)n1 [GSK-1070916] please.
[A] 26

[Q] For the molecule O=C(Nc1ccc(-c2ccnc(Nc3ccc(N4CCOCC4)cc3)n2)cc1)[C@@H]1CCCN1 , give its measured Population Healthy Nuclei (%) value.
[A] 85

[Q] Answer with the recorded Population Healthy Nuclei (%) of O=C(Nc1ccc(Cl)cc1)Nc1cccc(-c2cccc(N3CCCC3)n2)c1 only.
[A] 75

[Q] Name the recorded Population Healthy Nuclei (%) of the item Cl.O=c1c2cccn2c2ccccc2n1CCCN1CCC(c2ccc(Cl)cc2)CC1 in your answer.
[A] 70

[Q] Give me measured Population Healthy Nuclei (%), please, for this molecule: CN[C@@H]1C[C@H]2O[C@@](C)([C@@H]1OC)n1c3ccccc3c3c4c(c5c6ccccc6n2c5c31)C(=O)NC4 [STAUROSPORINE]
[A] 11

[Q] Consider the molecule COc1ccc(-c2ccc3c(N4CCOCC4)nc(N4C[C@@H](C)O[C@@H](C)C4)nc3n2)cc1CO [Ku-0063794] and give its recorded Population Healthy Nuclei (%).
[A] 28

====

Tested on: Fibroblast
Experiment: Multiplex assay against human fibroblast
Format: toxicity, cell-based
Conditions: 48 h, 1 µM, compound concentration 1 uM, replicate 1
ENDPOINT_NAME: Population Healthy Nuclei (%)
The reply should contain only the number, in %.

[Q] State the measured Population Healthy Nuclei (%) (Fibroblast) of CN1C2CCC1CC(OC(c1ccc(F)cc1)c1ccc(F)cc1)C2.Cl (stereo not given)
[A] 52

[Q] Fetch value of Population Healthy Nuclei (%) on Fibroblast for S=C(NCCCc1c[nH]cn1)NCCCN(Cc1ccc(Cl)c(Cl)c1)c1ccc(Br)cn1 .
[A] 39

[Q] State the measured Population Healthy Nuclei (%) (Fibroblast) of CCCn1c(=O)c2[nH]c(-c3cnn(Cc4cccc(C(F)(F)F)c4)c3)nc2n(CC)c1=O [GS 6201]
[A] 41

[Q] Please tell me the measured Population Healthy Nuclei (%) for Cc1ccc(C(=O)Nc2cccc(C(F)(F)F)c2)cc1Nc1nc(-c2cccnc2)nc2c1cnn2C ; system: Fibroblast.
[A] 36

[Q] For Fibroblast, give Population Healthy Nuclei (%) of the listed compound: O=C1NC(=O)C(c2cnc3ccccn23)=C1c1cn2c3c(cc(F)cc13)CN(C(=O)N1CCCCC1)CC2 [LY-2090314]
[A] 22

[Q] Identify measured Population Healthy Nuclei (%) obtained with Fibroblast for Cl.Oc1ccc2c3c1O[C@H]1c4[nH]c5c(c4C[C@@]4(O)[C@@H](C2)N(CC2CC2)CC[C@]314)C[C@@]1(O)[C@H]2Cc3ccc(O)c4c3[C@@]1(CCN2CC1CC1)[C@H]5O4 .
[A] 52

[Q] Given CCn1c(=O)c(-c2ccc(-c3cncs3)cc2Cl)cc2cnc(Nc3ccc(N4CCN(C)CC4)cc3)nc21 , report its Population Healthy Nuclei (%) on Fibroblast.
[A] 39

[Q] Print Fibroblast Population Healthy Nuclei (%) for Cc1cc(C)c(S(=O)(=O)N(Cc2ccc(-c3cccc(S(C)(=O)=O)c3)cc2)Cc2ccc(C(F)(F)F)o2)c(C)c1 .
[A] 58

[Q] State Population Healthy Nuclei (%) (Fibroblast) of CNc1cc(Oc2cc(C(=O)Nc3cc(N4CCN(C)CC4)cc(C(F)(F)F)c3)ccc2C)ncn1 .
[A] 43

[Q] Enter Population Healthy Nuclei (%) (test system Fibroblast) for CCCS(=O)(=O)c1nc(NC2CC2)cc(-c2ccc3c(ccn3C3CC(C)(C)NC(C)(C)C3)c2)n1
[A] 36

====

Some compounds, each annotated with its measured Population Healthy Nuclei (%).
Test system: Fibroblast
Test: Multiplex assay against human fibroblast
Format: toxicity, cell-based
Details: 12 h, 1 µM, compound concentration 1 uM, replicate 1

Below are worked cases with known answers.
[Q] Determine from records and report Population Healthy Nuclei (%) for CNc1cc(Oc2cc(C(=O)Nc3cc(N4CCN(C)CC4)cc(C(F)(F)F)c3)ccc2C)ncn1
[A] 39%

[Q] Indicate the recorded Population Healthy Nuclei (%) value for this compound: O=C(Nc1ccc(Cl)cc1)Nc1cccc(-c2cccc(N3CCCC3)n2)c1
[A] 41%

[Q] Give reported Population Healthy Nuclei (%) value for COc1cccc2cc(-c3nc([C@H]4CC[C@H](C(=O)O)CC4)n4ncnc(N)c34)[nH]c12
[A] 40%

[Q] Specify reported Population Healthy Nuclei (%) for the compound shown: CCCS(=O)(=O)Nc1ccc(F)c(C(=O)c2c[nH]c3ncc(Cl)cc23)c1F
[A] 62%

[Q] Please look at this compound and report its Population Healthy Nuclei (%): O=C1NC(=O)C(c2cnc3ccccn23)=C1c1cn2c3c(cc(F)cc13)CN(C(=O)N1CCCCC1)CC2
[A] 32%

[Q] Write down Population Healthy Nuclei (%) measured for item O=C(Nc1cccnn1)N1CCC(=Cc2cccc(Oc3ccc(C(F)(F)F)cn3)c2)CC1
[A] 56%

[Q] Name the recorded Population Healthy Nuclei (%) of the compound listed here: O=C(Nc1ccc(-c2ccnc(Nc3ccc(N4CCOCC4)cc3)n2)cc1)[C@@H]1CCCN1
[A] 41%

[Q] Provide only the value of recorded Population Healthy Nuclei (%) for CCn1c(=O)c(-c2ccc(-c3cncs3)cc2Cl)cc2cnc(Nc3ccc(N4CCN(C)CC4)cc3)nc21
[A] 37%

Now for another entry.
[Q] Assign Population Healthy Nuclei (%) to the following record: O=C(Cc1ccc(-c2ccc(OCCN3CCOCC3)cc2)cn1)NCc1ccccc1
[A] 47%
